Test: In vivo oral pharmacokinetics studies
Design: species or system Rabbits (Oryctolaguscuniculus)
Settings: albino, plasma; rabbit, oral CFT aqueous solution, 50 mg/kg
measurement_kind: Tmax (h)
# value in h; strip the unit string

Query: Tmax lookup needed for CO/N=C(\C(=O)N[C@@H]1C(=O)N2C(C(=O)O)=C(CSc3nc(=O)c(=O)[nH]n3C)CS[C@H]12)c1csc(N)n1 , thanks.
Reply: 1.5

* * *

Test: In vivo oral pharmacokinetics studies
Parameters: species or system Rabbits (Oryctolaguscuniculus)
Details: albino, plasma; rabbit, oral CFT aqueous solution, 50 mg/kg
measurement_kind: Cmax
Remember to put the unit after the number in your answer.

Query: Cmax lookup needed for CO/N=C(\C(=O)N[C@@H]1C(=O)N2C(C(=O)O)=C(CSc3nc(=O)c(=O)[nH]n3C)CS[C@H]12)c1csc(N)n1 , thanks.
Reply: 2000 ng/mL
